These entries and their values trace back to patent US12172995B2.

target: UniProt:Q9NYK1; experiment: TLR7 inhibition reporter assay (HEK-Blue SEAP); conditions: HEK-Blue cells overexpressing human TLR7, stimulated with gardiquimod 7.5 μM, 22 hour incubation
Sequence (Q9NYK1 27-1049): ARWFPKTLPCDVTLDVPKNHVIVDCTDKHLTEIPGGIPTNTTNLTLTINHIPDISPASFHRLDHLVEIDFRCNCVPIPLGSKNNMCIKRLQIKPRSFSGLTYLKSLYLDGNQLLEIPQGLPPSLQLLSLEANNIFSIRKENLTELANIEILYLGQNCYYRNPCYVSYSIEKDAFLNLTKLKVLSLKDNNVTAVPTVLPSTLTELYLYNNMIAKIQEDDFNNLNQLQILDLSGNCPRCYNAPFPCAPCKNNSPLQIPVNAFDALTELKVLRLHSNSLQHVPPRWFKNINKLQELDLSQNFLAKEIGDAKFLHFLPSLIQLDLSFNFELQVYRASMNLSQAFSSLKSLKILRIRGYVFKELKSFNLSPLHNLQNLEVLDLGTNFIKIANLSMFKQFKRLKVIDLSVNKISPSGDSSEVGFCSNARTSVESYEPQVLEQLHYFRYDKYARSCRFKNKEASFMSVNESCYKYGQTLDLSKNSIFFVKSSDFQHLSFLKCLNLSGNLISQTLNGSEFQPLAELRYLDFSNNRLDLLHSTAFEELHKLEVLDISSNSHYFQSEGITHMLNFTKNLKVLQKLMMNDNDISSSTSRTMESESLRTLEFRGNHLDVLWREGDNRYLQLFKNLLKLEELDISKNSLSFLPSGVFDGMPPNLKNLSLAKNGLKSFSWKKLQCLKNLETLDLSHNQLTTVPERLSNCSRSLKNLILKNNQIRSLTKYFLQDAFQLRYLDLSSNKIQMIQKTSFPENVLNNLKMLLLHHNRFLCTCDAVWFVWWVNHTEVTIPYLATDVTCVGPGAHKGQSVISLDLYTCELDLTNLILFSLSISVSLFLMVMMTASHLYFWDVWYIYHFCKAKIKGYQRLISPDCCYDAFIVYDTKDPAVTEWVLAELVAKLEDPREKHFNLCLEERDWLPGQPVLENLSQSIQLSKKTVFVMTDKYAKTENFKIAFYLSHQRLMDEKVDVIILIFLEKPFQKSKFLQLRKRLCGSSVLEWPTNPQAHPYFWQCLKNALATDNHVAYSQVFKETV
pIC50: −log10 of the molar value.
// pIC50 lookup, one value per entry
METRIC: pIC50

>>> test_value("Cc1cc(-c2cc3[nH]nc(C4CCC(N5CC(C)(O)C5)CC4)c3cc2C(C)C)cn2ncnc12 (stereo not drawn) [Example 153]")
8.96
>>> test_value("Cc1cc(-c2cc(C)c3ncnn3c2)cc2[nH]nc(C3CCC(N(C)C)CC3)c12 (stereo not drawn) [Example 81]")
8.89
>>> test_value("COC1CN(C2CCC(c3n[nH]c4cc(-c5cc(C)c6ncnn6c5)c(C(C)C)cc34)CC2)C1 (stereo not drawn) [Example 145]")
8.82
>>> test_value("Cc1cc2c(C3CCNCC3)n[nH]c2cc1-c1cc(C)c2ncnn2c1")
7.89
>>> test_value("Cc1cc2c(C3CCC(NC4CC4)CC3)n[nH]c2cc1-c1cc(C)c2ncnn2c1 (stereo not drawn) [Example 37]")
7.91
>>> test_value("Cc1cc2c(C3CCC(NC(C)C)CC3)n[nH]c2cc1-c1cc(C)c2ncnn2c1 (single isomer, unassigned) [Example 38]")
8.22
>>> test_value("CCc1cc2c(C3CCC(NCCS(C)(=O)=O)CC3)n[nH]c2cc1-c1cc(C)c2ncnn2c1 (single isomer, unassigned) [Example 99]")
9.05
>>> test_value("COc1ccc(-c2cc3[nH]nc(C4CCCNC4)c3cc2C)cc1OC (stereo not drawn)")
6.08
>>> test_value("CCc1cc2c(C3CCN(C(=O)CCCN(C)C)CC3)n[nH]c2cc1-c1cc(C)c2ncnn2c1")
7.99
>>> test_value("CCc1cc2c(C3CCC(NCCS(C)(=O)=O)CC3)n[nH]c2cc1-c1cc(C)c2ncnn2c1 (single isomer, unassigned) [Example 100]")
8.12
>>> test_value("COc1cc(-c2cc3[nH]nc(C4CCC(N5CC(OC)C5)CC4)c3cc2C(C)C)cn2ncnc12 (single isomer, unassigned) [Example 147]")
9.40
>>> test_value("Cc1cc2c(N3CCNCC3)n[nH]c2cc1-c1cc(C)c2ncnn2c1")
7.85
>>> test_value("CCc1cc2c(C3CCN(C4CCOCC4)CC3)n[nH]c2cc1-c1cc(C)c2ncnn2c1")
8.43
>>> test_value("CCc1cc(-c2cc(C)c3ncnn3c2)cc2[nH]nc(OC3CCN(CC(=O)N(C)C)CC3)c12")
8.31
>>> test_value("Cc1cc(-c2cc3[nH]nc(C4CCC(N5CCC6(CCOC6)C5)CC4)c3cc2C(C)C)cn2ncnc12 (single isomer, unassigned) [Example 209]")
9.21
